assay: physchem; conditions: 60 °C, oil or lipid, thermodynamic from solid, solubility in squalene at 5 mg/mL, mixed with squalene at 60° C.
Could you please report measured solubility for the items listed next?

MOLECULE	RESULT
CCCCCCCCCCCCCCCCCCCCCC(=O)O [Behenic Acid (22:0), Behenic Acid]	< 5 mg/mL
CCCCCCCCCCCCCCCCCCCCC(=O)O [Heneicosanoic Acid]	< 5 mg/mL
CCCCCCCCCCCCCCCCCCCCCCC(=O)O [Tricosanoic Acid]	< 5 mg/mL
CCCCCCCCCCCCCCCCC(=O)O [Heptadecanoic Acid]	> 5 mg/mL
CCCCCCCCCCCCCCCCCCCC(=O)O [Arachidic Acid (20:0), Arachidic Acid]	> 5 mg/mL
CCCCCCCCCCCCCCCCCCC(=O)O [Nonadecanoic Acid]	< 5 mg/mL

// switching to the query molecule
stdin: Which solubility value belongs to CCCCCCCCCCCCCCCCCCCCCCCC(=O)O [Lignoceric Acid (24:0), Lignoceric Acid] ?
stdout: < 5 mg/mL

---

experiment: physchem; conditions: 4 °C, oil or lipid, thermodynamic from solid, solubility in squalene, 4° C. (overnight), solution at the fatty acid's top concentration left at 4° C. overnight
VALUE_KIND: solubility

Use these answered entries as a reference point.
COMPOUND	solubility
CCCCCCCCCCCCCCCCC(=O)O	< 40 mg/mL
CCCCCCCC/C=C/CCCCCCCC(=O)O [Elaidic Acid (18:1)-trans, Elaidic Acid]	< 40 mg/mL
CCCCCCCCCCCCCCCCCCC(=O)O	< 40 mg/mL
CCCCCCCCCCCCCCCCCCCCCC(=O)O	< 40 mg/mL

Shifting focus to the compound that follows.
stdin: Requested read-out: solubility. Entry: CCCCCCCC/C=C\CCCCCCCC(=O)O [Oleic Acid (18:1)-cis, Oleic Acid]
stdout: > 40 mg/mL
